Data provenance is patent US8034811B2.

- target.or.test.system: human intracellular domain of KDR (VEGF Receptor-2) (Homo sapiens, UniProt P35968)
- Construct: A fusion protein containing the intracellular domain (amino acids 793 to 1357) of the KDR and N-terminally tagged to GST; E. coli BL21 (pGEX-4T-1) for GST-PLCγ
- Sequence (P35968 794-1356 limits assumed): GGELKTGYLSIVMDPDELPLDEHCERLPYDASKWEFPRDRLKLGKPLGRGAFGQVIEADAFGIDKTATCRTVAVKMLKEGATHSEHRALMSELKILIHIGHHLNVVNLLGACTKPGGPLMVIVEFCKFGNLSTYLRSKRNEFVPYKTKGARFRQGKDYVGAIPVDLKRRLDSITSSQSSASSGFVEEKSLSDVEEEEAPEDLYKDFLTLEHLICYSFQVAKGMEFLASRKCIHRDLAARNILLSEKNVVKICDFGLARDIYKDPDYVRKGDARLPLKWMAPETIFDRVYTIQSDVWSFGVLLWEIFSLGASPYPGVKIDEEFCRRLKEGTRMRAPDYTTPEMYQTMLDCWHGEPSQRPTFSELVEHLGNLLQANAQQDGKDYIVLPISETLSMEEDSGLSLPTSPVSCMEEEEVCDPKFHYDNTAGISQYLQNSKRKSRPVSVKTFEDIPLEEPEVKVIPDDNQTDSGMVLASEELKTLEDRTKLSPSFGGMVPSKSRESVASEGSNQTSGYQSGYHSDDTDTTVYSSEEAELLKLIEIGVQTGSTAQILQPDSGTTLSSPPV
- assay.protocol: In vitro KDR kinase assay
- condition.details: IC50 as molar concentration; GST-KDR-cyt, substrate phospholipase Cγ, ATP 100 μM, 30 min room temperature, time-resolved fluorometry
observation.type: IC50 (µM)
Response body: numeric value in µM, unit text excluded.

### Prompt Which measured IC50 value corresponds to O=C(NOCc1ccccc1SC(F)(F)F)c1ccccc1NCc1ccncc1 ?
### Response 0.0316

### Prompt // returns reported IC50 for input CNC(=O)Nc1cc(CNc2ccccc2C(=O)NOCC2CCCCO2)ccn1 (stereo not shown)
### Response 0.00794

### Prompt Quick one: IC50 of COC(=O)c1ccc(CONC(=O)c2ccccc2NCc2ccncc2)cc1 ?
### Response 0.0794

### Prompt So what's the measured IC50 for this one? Cc1nc(CONC(=O)c2ccccc2NCc2ccncc2)cs1
### Response 0.02

### Prompt Which IC50 value is on record for O=C(NOC1CCCCC1)c1ccccc1NCc1ccncc1 ?
### Response 0.0631

### Prompt Field request: IC50 | item: CCOC(=O)Nc1cc(CNc2ccccc2C(=O)NOCc2ccc(C#N)cc2)ccn1
### Response 0.00794

### Prompt Give the measured IC50 of O=C(NOCC1CCCC1)c1ccccc1NCc1ccnc(NC(=O)C2CC2)c1 .
### Response 0.00501

### Prompt Reported IC50, molecule COc1ccc(CNc2ccccc2C(=O)NOCc2ccc(C#N)cc2)cn1 : ____
### Response 0.0794

### Prompt # IC50 lookup, item O=C(NOCC1CCOCC1)c1ccccc1NCc1ccnc2ccccc12
### Response 0.0631

### Prompt Fill in: IC50 of O=C(NOCc1ccc(F)cc1)c1ccccc1NCc1ccc2c(c1)CCO2 is ___
### Response 0.0794

### Prompt Item COc1ccc(CONC(=O)c2ccccc2NCc2ccncc2)cc1C(F)(F)F has what recorded IC50?
### Response 0.0631

### Prompt For Cc1ccc(CONC(=O)c2ccccc2NCc2ccncc2)c(F)c1F , what is its reported IC50?
### Response 0.01

### Prompt Report IC50 for O=C(NOCC1CCCC1)c1cccnc1NCc1ccncc1 please.
### Response 0.00794

### Prompt Form field: reported IC50 of Cc1ccc(CONC(=O)c2ccccc2NCc2ccncc2)cc1C(F)(F)F
### Response 0.0631

### Prompt Need IC50 of O=C(NOCc1cccc(Cl)c1)c1ccccc1NCc1ccncc1 , thanks.
### Response 0.126

### Prompt Which measured IC50 value corresponds to Cc1ccc(CONC(=O)c2ccccc2NCc2ccncc2)cc1 ?
### Response 0.0158

### Prompt Data request, read-out IC50, for O=C(NOCc1ccccc1F)c1ccccc1NCc1ccncc1
### Response 0.0316

### Prompt Please report the recorded IC50 for O=C(NOCc1ccc(Cl)s1)c1ccccc1NCc1ccncc1 .
### Response 0.0794

### Prompt Name the recorded IC50 for N#Cc1cccc(CONC(=O)c2ccccc2NCc2ccncc2)c1 .
### Response 0.0631

* * *

- target.or.test.system: human intracellular domain of KDR (VEGF Receptor-2) (Homo sapiens)
- Construct: A fusion protein containing the intracellular domain (amino acids 793 to 1357) of the KDR and N-terminally tagged to GST; E. coli BL21 (pGEX-4T-1) for GST-PLCγ
- assay.protocol: In vitro KDR kinase assay
- condition.details: IC50 as molar concentration; GST-KDR-cyt, substrate phospholipase Cγ, ATP 100 μM, 30 min room temperature, time-resolved fluorometry
Consider the following compounds; for each one, report its pIC50.
// scale note: pIC50 = -log10(conc_M); give the bare number

### Prompt What value of pIC50 has been reported for the following compound? COc1ccc(CONC(=O)c2ccccc2NCc2ccncc2)cc1
### Response 7.40

### Prompt What measured pIC50 goes with COCC(=O)Nc1cc(CNc2ccccc2C(=O)NOCC2CCCC2)ccn1 ?
### Response 7.70

### Prompt What does the record list as pIC50 for O=C(NOCc1cccc(Cl)c1F)c1ccccc1NCc1ccncc1 ?
### Response 7.30

### Prompt Record request: pIC50 value, item O=C(NOCc1ccc2ccccc2n1)c1ccccc1NCc1ccncc1
### Response 7.00

### Prompt Which value of pIC50 has been reported for Cc1ccc(CONC(=O)c2ccccc2NCc2ccncc2)cc1F in the records?
### Response 7.70

### Prompt pIC50 lookup needed for O=C(NOCC1CCOCC1)c1ccccc1NCc1ccncc1 , thanks.
### Response 7.30

### Prompt Which measured pIC50 value corresponds to O=C(NOCC1CC=CCC1)c1ccccc1NCc1ccncc1 (stereo not shown) ?
### Response 7.80

### Prompt Request the reported pIC50 associated with O=C(NOCC1CCCC1)c1ccccc1NCc1ccncc1
### Response 8.60

### Prompt // query pIC50 value for entry N#Cc1ccc(CONC(=O)c2ccccc2NCc2ccncc2)c(F)c1
### Response 7.60

### Prompt Name the reported pIC50 value associated with the compound O=C(NOCc1c(Cl)cccc1Cl)c1ccccc1NCc1ccncc1
### Response 7.60

### Prompt Requested read-out: pIC50. Entry: N#Cc1ccc(CONC(=O)c2cccnc2NCc2ccncc2)cc1
### Response 7.20

### Prompt Report pIC50 for O=C(NOCc1cnc(Cl)s1)c1ccccc1NCc1ccncc1 please.
### Response 7.30

### Prompt Bench note: what pIC50 did O=C(NOCCCc1ccccc1)c1ccccc1NCc1ccncc1 show?
### Response 6.90

### Prompt What value of pIC50 has been recorded for this entry: COc1c(F)c(F)c(CONC(=O)c2ccccc2NCc2ccncc2)c(F)c1F
### Response 7.70

### Prompt I have this compound here, O=C(NOCc1cccc(C(F)(F)F)c1)c1ccccc1NCc1ccncc1 , and I need its recorded pIC50.
### Response 6.70

### Prompt Any idea what its pIC50 is? The compound is N#Cc1ccc(CONC(=O)c2ccccc2NCc2ccnc(NC(=O)NCCO)c2)cc1
### Response 8.10

### Prompt Value lookup for pIC50; key = O=C(NOCc1cccc(F)c1)c1ccccc1NCc1ccncc1
### Response 7.60

### Prompt Value lookup for pIC50; key = CNC(=O)Nc1cc(CNc2ccccc2C(=O)NOCc2ccc(C)c(F)c2F)ccn1
### Response 8.10

### Prompt // pIC50 lookup, key: COc1cc(C#N)ccc1CONC(=O)c1cccnc1NCc1ccncc1
### Response 7.20

* * *

Could you please report measured IC50 for the items listed next?
- target.or.test.system: human intracellular domain of KDR (VEGF Receptor-2) (Homo sapiens)
- Construct: A fusion protein containing the intracellular domain (amino acids 793 to 1357) of the KDR and N-terminally tagged to GST; E. coli BL21 (pGEX-4T-1) for GST-PLCγ
- assay.protocol: In vitro KDR kinase assay
- condition.details: IC50 as molar concentration; GST-KDR-cyt, substrate phospholipase Cγ, ATP 100 μM, 30 min room temperature, time-resolved fluorometry
The reply should be a number in nM, with the unit left off.

### Prompt Name the recorded IC50 for O=C(NOCCCC1CCCC1)c1ccccc1NCc1ccncc1 .
### Response 15.8

### Prompt Dear colleague, I am looking for the recorded IC50 of the following compound: CNC(=O)Nc1cc(CNc2ccccc2C(=O)NOCc2ccc(C#N)cc2OC)ccn1
### Response 20

### Prompt What IC50 value was documented for this compound, Cc1nc(CONC(=O)c2ccc(F)cc2NCc2ccncc2)cs1 ?
### Response 100

### Prompt May I ask what IC50 has been recorded for O=C(NOCC1C[C@@H]2CC[C@H]1C2)c1ccccc1NCc1ccncc1 (stereo in doubt) ?
### Response 20

* * *

- target.or.test.system: human intracellular domain of KDR (VEGF Receptor-2) (Homo sapiens, UniProt P35968)
- Construct: A fusion protein containing the intracellular domain (amino acids 793 to 1357) of the KDR and N-terminally tagged to GST; E. coli BL21 (pGEX-4T-1) for GST-PLCγ
- assay.protocol: In vitro KDR kinase assay
- condition.details: IC50 as molar concentration; GST-KDR-cyt, substrate phospholipase Cγ, ATP 100 μM, 30 min room temperature, time-resolved fluorometry
Please go through the items and note down their pIC50.
# pIC50: negative log10 of molar concentration; output just the value

### Prompt May I ask what pIC50 has been recorded for Nc1ccccc1CONC(=O)c1ccccc1NCc1ccncc1 [Compound 85] ?
### Response 7.30

### Prompt Please look up its pIC50: O=C(NCCCO)c1cc(CNc2ccccc2C(=O)NOCC2CCCC2)ccc1F [Compound 188]
### Response 7.10

### Prompt # get_value(readout='pIC50', item= O=C(NOCc1ccccc1)c1ccccc1NCc1ccnc2ccccc12 [compound 230] )
### Response 7.60

### Prompt Returns the measured pIC50 for the input molecule. Input: CO[C@@H]1CCC[C@H](CONC(=O)c2ccccc2NCc2ccncc2)C1 (stereo in doubt) [Compound 131]
### Response 7.40

### Prompt Which pIC50 value belongs to Cc1cc(F)cc(C)c1CONC(=O)c1ccccc1NCc1ccncc1 [Compound 38] ?
### Response 8.00
